# Tested on: Staphylococcus aureus
# protocol-notes: Antibacterial activity against Staphylococcus aureus at 5 ug after 24 hrs by disc diffusion assay
# Type: functional
# protocol-conditions: read-out: IZ
readout-label: zone of inhibition at 5 µg/disc (mm)
Output spec: scalar in mm, unitless text.

Some solved cases for reference:
compound="CCC1[C@@H]2Nc3ccc(Cl)cc3C(c3ccccc3)[C@H]2CN1OS(=O)(=O)c1ccc(C)cc1 (some centres undefined)" endpoint_value=9
compound="CCC1[C@@H]2c3c(c4ccccc4n(C)c3=O)OC(c3ccccc3)[C@H]2CN1OS(=O)(=O)c1ccc(C)cc1 (mixture of isomers)" endpoint_value=9

Please report the measured zone of inhibition at 5 µg/disc for "O=C(O)c1cn(C2CC2)c2cc(N3CCNCC3)c(F)cc2c1=O"
22

Give me measured zone of inhibition at 5 µg/disc, please, for this compound: CCC1[C@H]2c3c(n(C)c4ccccc4c3=O)OC(C)(C)[C@@H]2CN1OS(=O)(=O)c1ccc(C)cc1 (mixture of isomers)
20

Provide zone of inhibition at 5 µg/disc value for the following compound: CCC1[C@@H]2Nc3ccc(Cl)cc3C(C)(C)[C@H]2CN1OS(=O)(=O)c1ccc(C)cc1 (some centres undefined)
20
